- Test system: Sorghum
- protocol_notes: Pre-emergent herbicidal activity (Table III); also: ranges in brackets are in %
- Type: in vivo
- settings: 5.6 kg/ha
reported_property: Herbicidal rating

1. CCc1cccc(CC)c1N(Cn1c(=O)sc2ccccc21)C(=O)CCl	0 (0-24)

Proceed to the following item.
**Q:** Item CC1=C(N(Cn2c(=O)sc3ccc(Cl)cc32)C(=O)CCl)C(C)CCC1 (stereo not drawn) has what recorded Herbicidal rating?
**A:** 0 (0-24)

---

Entries and their Herbicidal rating
- Tested on: Smartweed
- protocol_notes: Pre-emergent herbicidal activity (Table III); also: ranges in brackets are in %
- Assay type: in vivo
- settings: 1.12 kg/ha

1. CCc1cccc(CC)c1N(Cn1c(=O)sc2ccccc21)C(=O)CCl [Example 3]	1 (25-49)

**Q:** Give Smartweed Herbicidal rating for CC1=C(N(Cn2c(=O)sc3ccccc32)C(=O)CCl)C(C)CCC1 (stereo not drawn) [Example 9]
**A:** 0 (0-24)

**Q:** Give Smartweed Herbicidal rating for COc1cccc(C)c1N(Cn1c(=O)sc2ccccc21)C(=O)CCl [Example 2]
**A:** 2 (50-74)

---

- Test system: Sugarbeet
- protocol_notes: Pre-emergent herbicidal activity (Table III); also: ranges in brackets are in %
- Assay type: in vivo
- settings: 1.12 kg/ha
reported_property: Herbicidal rating

1) CC1=C(N(Cn2c(=O)sc3ccccc32)C(=O)CCl)C(C)CCC1 (stereo not drawn) [Example 1]	1 (25-49)
2) COc1cccc(C)c1N(Cn1c(=O)sc2ccccc21)C(=O)CCl	0 (0-24)
3) CC1=C(N(Cn2c(=O)sc3ccccc32)C(=O)CCl)CCCC1	0 (0-24)
4) CC1=C(N(Cn2c(=O)sc3ccccc32)C(=O)CCl)C(C)CCC1 (stereo not drawn) [Example 9]	0 (0-24)
5) CCc1cccc(CC)c1N(Cn1c(=O)sc2ccccc21)C(=O)CCl	0 (0-24)

Proceed to the following item.
**Q:** Item CC1=C(N(Cn2c(=O)sc3ccc(Cl)cc32)C(=O)CCl)C(C)CCC1 (stereo not drawn) has what recorded Herbicidal rating?
**A:** 1 (25-49)

---

- System: Lambsquarters
- protocol_notes: Pre-emergent herbicidal activity (Table II); also: ranges in brackets are in %
- Assay type: in vivo
- settings: 11.2 kg/ha, 2-3 weeks
Entries and their Herbicidal rating

Illustrative cases are given below, each with its answer.
1) CC1=C(N(Cn2c(=O)sc3ccccc32)C(=O)CCl)C(C)CCC1 (stereo not drawn)	1 (25-49)
2) CC1=C(N(Cn2c(=O)sc3ccc(Cl)cc32)C(=O)CCl)C(C)CCC1 (stereo not drawn)	3 (75-100)
3) COc1cccc(C)c1N(Cn1c(=O)sc2ccccc21)C(=O)CCl	1 (25-49)
4) CC1=C(N(Cn2c(=O)oc3ccccc32)C(=O)CCl)C(C)CCC1 (stereo not drawn)	1 (25-49)
5) CCc1cccc(CC)c1N(Cn1c(=O)sc2ccccc21)C(=O)CCl	0 (0-24)

**Q:** Item CC1=C(N(Cn2c(=O)sc3cc(Br)ccc32)C(=O)CCl)C(C)CCC1 (stereo not drawn) has what recorded Herbicidal rating?
**A:** 1 (25-49)

**Q:** Item CCC1=C(N(Cn2c(=O)sc3ccccc32)C(=O)CCl)C(CC)CCC1 (stereo not drawn) has what recorded Herbicidal rating?
**A:** 1 (25-49)

**Q:** Item CC1=C(N(Cn2c(=O)sc3ccccc32)C(=O)CCl)CCCC1 has what recorded Herbicidal rating?
**A:** 0 (0-24)

**Q:** Item CCOc1ccc2c(c1)sc(=O)n2CN(C(=O)CCl)C1=C(C)C(C)CCC1 (stereo not drawn) has what recorded Herbicidal rating?
**A:** 0 (0-24)
